Reference source: paper PMC5840523

- Test system: T. b. brucei 427
- PROCEDURE SUMMARY: T. b. brucei growth inhibition (University of Antwerp)
- Assay type: cell-based, Trypanosoma brucei brucei
- ASSAY CONDITIONS: Trypanosoma brucei, T. b. brucei 427; mean of 2 to 5 determinations; read-out: IC50 T. b. bruc
pIC50: −log10 of the molar value.
# pIC50 annotations

[
  {
    "MOLECULE": "O=[N+]([O-])c1cn2c(n1)SCC(OCc1ccc(-c3ccc(OC(F)(F)F)cc3)cn1)C2 (centres unmarked)",
    "SYSTEM NAME": "T. b. brucei 427",
    "CENSORING SIGN": "=",
    "pIC50": 5.37
  },
  {
    "MOLECULE": "O=[N+]([O-])c1cn2c(n1)SCC(OCc1ccc(OCc3ccccc3)cc1)C2 (centres unmarked)",
    "SYSTEM NAME": "T. b. brucei 427",
    "CENSORING SIGN": "=",
    "pIC50": 5.85
  },
  {
    "MOLECULE": "O=[N+]([O-])c1cn2c(n1)[S@@+]([O-])C[C@H](OCc1ccc(OC(F)(F)F)cc1)C2",
    "SYSTEM NAME": "T. b. brucei 427",
    "CENSORING SIGN": "=",
    "pIC50": 4.47
  },
  {
    "MOLECULE": "O=[N+]([O-])c1cn2c(n1)SCC(OCc1ccc(OC(F)(F)F)cc1)C2 (centres unmarked)",
    "SYSTEM NAME": "T. b. brucei 427",
    "CENSORING SIGN": "=",
    "pIC50": 4.36
  },
  {
    "MOLECULE": "O=[N+]([O-])c1cn2c(n1)[S+]([O-])CC(OCc1ccc(OCc3ccccc3)cc1)C2 (centres unmarked)",
    "SYSTEM NAME": "T. b. brucei 427",
    "CENSORING SIGN": "=",
    "pIC50": 7.52
  },
  {
    "MOLECULE": "O=[N+]([O-])c1cn2c(n1)S(=O)(=O)CC(OCc1ccc(OC(F)(F)F)cc1)C2 (centres unmarked)",
    "SYSTEM NAME": "T. b. brucei 427",
    "CENSORING SIGN": "=",
    "pIC50": 5.96
  },
  {
    "MOLECULE": "O=[N+]([O-])c1cn2c(n1)[S@+]([O-])C[C@@H](OCc1ccc(OC(F)(F)F)cc1)C2",
    "SYSTEM NAME": "T. b. brucei 427",
    "CENSORING SIGN": "=",
    "pIC50": 6.85
  },
  {
    "MOLECULE": "O=[N+]([O-])c1cn2c(n1)SCC(Oc1ccc(OC(F)(F)F)cc1)C2 (centres unmarked)",
    "SYSTEM NAME": "T. b. brucei 427",
    "CENSORING SIGN": "=",
    "pIC50": 4.40
  },
  {
    "MOLECULE": "O=[N+]([O-])c1cn2c(n1)S(=O)(=O)CC(Oc1ccc(C(F)(F)F)cn1)C2 (centres unmarked)",
    "SYSTEM NAME": "T. b. brucei 427",
    "CENSORING SIGN": "=",
    "pIC50": 4.72
  },
  {
    "MOLECULE": "O=[N+]([O-])c1cn2c(n1)S(=O)(=O)CC(Oc1ccc(OC(F)(F)F)cc1)C2 (centres unmarked)",
    "SYSTEM NAME": "T. b. brucei 427",
    "CENSORING SIGN": "=",
    "pIC50": 4.82
  },
  {
    "MOLECULE": "O=[N+]([O-])c1cn2c(n1)[S@+]([O-])C[C@H](OCc1ccc(OC(F)(F)F)cc1)C2",
    "SYSTEM NAME": "T. b. brucei 427",
    "CENSORING SIGN": "=",
    "pIC50": 4.80
  },
  {
    "MOLECULE": "O=[N+]([O-])c1cn2c(n1)[S@@+]([O-])C[C@@H](OCc1ccc(OC(F)(F)F)cc1)C2",
    "SYSTEM NAME": "T. b. brucei 427",
    "CENSORING SIGN": "=",
    "pIC50": 5.25
  },
  {
    "MOLECULE": "O=[N+]([O-])c1cn2c(n1)S(=O)(=O)CC(OCc1ccc(OCc3ccccc3)cc1)C2 (centres unmarked)",
    "SYSTEM NAME": "T. b. brucei 427",
    "CENSORING SIGN": "=",
    "pIC50": 7.01
  },
  {
    "MOLECULE": "O=[N+]([O-])c1cn2c(n1)SCC(Oc1ccc(C(F)(F)F)cn1)C2 (centres unmarked)",
    "SYSTEM NAME": "T. b. brucei 427",
    "CENSORING SIGN": "<",
    "pIC50": 4.19
  }
]
